- Test system: ATP;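 note: ATP exposure 15 min at 22 °C before imaging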
- protocolSummary: switch fluorescence ratio, 500 uM ATP over buffer (Cy3 cluster intensity, sum of 5 cycles each) (fold (ratio)); higher = stronger signal-on switching upon ATP binding; sequences stand for … in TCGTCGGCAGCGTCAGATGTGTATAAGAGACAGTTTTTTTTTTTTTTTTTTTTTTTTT…TC
- experimentalSetup: aptamer strand: ATP DNA aptamer (quencher-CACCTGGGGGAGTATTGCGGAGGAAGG + anchor), 100 nM annealed; ATP concentration: 500 uM
propertyMeasured: switch fluorescence ratio

> print(dat)
    sequenceentry  testsystem  assayresult
 1     AATTCTGGAA         ATP        0.982
 2     GGGCAGGTTT         ATP         1.01
 3     GTTACTAATT         ATP        0.994
 4     GAAAAAAGTA         ATP         1.01
 5     TGCACTAGAA         ATP         1.01
 6     AGAGTGTATG         ATP         1.01
 7     CTATGCTAGT         ATP         1.01
 8     TTTTGTGGAA         ATP        0.998
 9     TGGTTCGTTT         ATP        0.995
10     GACTTTAAGC         ATP         1.01
11     GGGCGGGGAA         ATP         1.03
12     CGTATCTGAC         ATP         1.04
13     ATCCGCTAGT         ATP         2.16
14     ATCTTGGACG         ATP         1.05
15     CAGTTTTAGT         ATP         1.01
16     ATTGGAGTGG         ATP        0.994
17      CATGTAGTA         ATP        0.987
18     AGGGGGCCGC         ATP        0.976
19     ATGAGTAAGG         ATP        0.991
20     GAGAGTCCTT         ATP        0.997
21     TATATTGCTA         ATP         1.01
22     TTTTTGGTTT         ATP         1.02
23     GCTTCGGAGA         ATP         1.03
24     GAGCCGGAGC         ATP        0.993
25     TGGATTTTGC         ATP        0.989
26     ATGCGCAGAT         ATP         1.05
27     TGGTTGCTGA         ATP            1
28     AGGTTTGTTG         ATP        0.998
29     ACCAAGTTCA         ATP         1.02
30     AACTGTGGAT         ATP        0.999
31     GGTGATGGTG         ATP        0.976
32     GCGATCTGGA         ATP         1.04
33     CACAAGCACT         ATP         1.28
34     AAAAAATATT         ATP         1.03
35     GACCAAATTT         ATP         1.02
36     TTTTGTAAGG         ATP         1.01
37     GGTTGGTCTA         ATP        0.979
38     ACCCATGAAG         ATP        0.989
39     GGCACGGGGC         ATP         1.02
